Sourced from patent US9452990B2

log10 IC50 for assorted compounds
Target: human complement factor B (CVF-Bb complex) (Homo sapiens (Human))
Test: Human Complement Factor B ELISA Assay
Assay type: biochemical
Conditions: CVF-Bb complex 3 nM, 1 hour preincubation with compound at room temperature, human C3 substrate 1 μM, C3a quantified by ELISA; read-out: Factor B IC50
Structures can show the parent of a compound that is named as a salt.
parameterMeasured: log10 IC50 (log10 of the value in nM)

[[record]]
compound = "COc1cc2c(N)nc(N3CCN(C(=O)/C=C/C4CC4)CC3)nc2c(F)c1OC [Example 1, hydrochloride]"
parametermeasured = "log10 IC50"
readoutvalue = 2.70

[[record]]
compound = "COc1cc2c(N)nc(N3CCN(C(=O)C[C@@H]4CCCCN4)CC3)nc2c(C#N)c1OC"
parametermeasured = "log10 IC50"
readoutvalue = 3.46

[[record]]
compound = "COc1cc2c(N)nc(N3CCN(C(=O)C[C@H](c4ccc(F)cc4)N4CCC4)CC3)nc2c(F)c1OC"
parametermeasured = "log10 IC50"
readoutvalue = 1.00

[[record]]
compound = "COc1cc2c(N)nc(N3CCN(C(=O)C[C@@H](N)C4CCCC4)CC3)nc2c(F)c1OC"
parametermeasured = "log10 IC50"
readoutvalue = 2.00

[[record]]
compound = "COc1cc2c(N)nc(N3C[C@@H](C)N(C(=O)C[C@@H](N)c4ccccc4)C[C@@H]3C)nc2c(F)c1OC"
parametermeasured = "log10 IC50"
readoutvalue = 1.78

[[record]]
compound = "CN[C@H](CC(=O)N1CCN(c2nc(N)c3cc(OC)c(OC)c(F)c3n2)CC1)c1ccc(C#N)cc1"
parametermeasured = "log10 IC50"
readoutvalue = 0.60

[[record]]
compound = "COc1cc2c(N)nc(N3CCN(C(=O)[C@@H]4CCc5ccccc5[C@@H]4N)C[C@@H]3c3ccccc3)nc2c(F)c1OC"
parametermeasured = "log10 IC50"
readoutvalue = 2.38

